Measured values drawn from a melting point compilation (Tetko et al.; mined from patent text by program, amines drawn as free bases though some values may be those of a salt) for this set.

readout.type: melting point

The compound CCC(C)(C)N1CCNC(S(=O)(=O)Nc2ccc3[nH]c(C(=O)N4CCN(c5ncccc5NC(C)C)CC4)cc3c2)C1 (stereo unspecified) showed melting point equal to 158 to 160 °C

The compound `O=c1cc(C(F)(F)F)ccn1-c1c(Cl)cc(CO)cc1Cl` showed melting point equal to 151 to 152 °C

The compound `O=C(c1ccc([N+](=O)[O-])cc1Cl)N1CCCCc2sccc21` showed melting point equal to 131 to 134 °C

The compound `COC(=O)c1cc(NC(=O)OC(C)(C)C)c(NC(=O)CC(=O)c2cccc(C#N)c2)cc1I` showed melting point equal to 162 to 166 °C

The compound CC(=O)OC(C)(C(=O)O)c1ccc(-c2ccccc2)c(F)c1 (stereo unspecified) showed melting point equal to 125 to 127 °C

The compound O=C(O)c1ccc(CCCC2SCC(=O)N2CCC2(O)CCSCC2)cc1 (stereo unspecified) showed melting point equal to 157 to 158 °C

The compound `COc1cc(OC(C)C)cc2oc(Sc3ccc(O)cc3)cc(=O)c12` showed melting point equal to 263 to 265 °C

The compound `COC(=O)c1c(N)cccc1S(=O)(=O)NC(C)(C)C` showed melting point equal to 132 to 133 °C

The compound `CCOC(=O)c1ncn2c1c(=O)[nH]c1cc(S(C)(=O)=O)ccc12` showed melting point equal to > 300 °C

The compound `NS(=O)(=O)c1ccc(Nc2ccccc2)c([N+](=O)[O-])c1` showed melting point equal to 155 °C

The compound `O=C(c1ccccc1)c1ccccc1I` showed melting point equal to 29 to 31 °C

The compound `CN(C)C(=O)Sc1nc(-c2ccccc2)cn1-c1ccc([N+](=O)[O-])cn1` showed melting point equal to 200 to 201 °C

The compound `COc1ccc(S(=O)(=O)C2(C(=O)O)CCN(Cc3ccc(-c4ccccc4)cc3)CC2)cc1` showed melting point equal to 168 °C

The compound O=C(OCN1C(=O)C2CCCN2S1(=O)=O)c1c(Cl)cccc1Cl (stereo unspecified) showed melting point equal to 92 to 93.5 °C

The compound COC(=O)NC1CCc2sccc2C1 (stereo unspecified) showed melting point equal to 108 to 109 °C

The compound `Cc1ccc2nc(-c3ccc(N)c(I)c3)sc2c1` showed melting point equal to 176 to 178 °C

The compound `COCCCn1c2cc(C)ccc2n2c(C)nnc12` showed melting point equal to 113 to 114 °C

The compound `CCOC(=O)c1cc(-c2ccc(N)cc2)cnc1C` showed melting point equal to 137 to 138 °C

The compound `Cc1ccc(C(=O)Nc2nc(C(Cl)(Cl)Cl)ns2)cc1` showed melting point equal to 127 °C

The compound `O=C1C=CC(O)(c2cccc3ccccc23)C=C1` showed melting point equal to 117 to 118 °C

The compound O=C1N(Cc2ccccn2)c2cccc(-c3cnc4ccccc4c3)c2C12COc1cc3c(cc12)OCCO3 (stereo unspecified) showed melting point equal to 228 to 230 °C

The compound COc1cc(OC)nc(OC2C(=O)OCC2(C)C)n1 (stereo unspecified) showed melting point equal to 139 to 142 °C

The compound `Nc1nc2ccccc2c2sc(CCc3ccccc3)nc12` showed melting point equal to 158 to 159 °C

The compound `CCOC(=O)CCCn1c2c(c(=O)n3nc(-c4ccccc4)cc13)CN(C1CCCCC1)C2=O` showed melting point equal to 195 to 196 °C

The compound `Cc1ccc(S(=O)(=O)NC(C)(C)CO)cc1NC(=O)c1cnn2c(C(F)F)cc(-c3ccc(C(F)(F)F)cc3)nc12` showed melting point equal to 214 °C

The compound `COc1ccc(CNC(=O)C(=O)NCCc2cccs2)c(OC)c1` showed melting point equal to 146 to 147 °C

The compound `O=C1CCC=C2N=CC=NC=C12` showed melting point equal to 141 to 146 °C

The compound O=C1NC(=O)C(=Cc2ccc(OCCN3C(=O)SC(Cc4ccccc4)C3=O)cc2)S1 (stereo unspecified) showed melting point equal to 145 to 147 °C

The compound `COc1cccc(N(C)C(=S)Oc2ccc3ccccc3c2)n1` showed melting point equal to 95.5 to 97 °C

The compound `Nc1cc(O)nc2c(-c3ccncc3)c(-c3ccc(F)cc3)nn12` showed melting point equal to > 250 °C

The compound `CCCc1c(O)ccc2c(=O)cc(-c3ccc(C(=O)OCC)cc3)oc12` showed melting point equal to 225 to 226 °C

The compound OC(Cn1c(-c2ccc(Cl)cc2)nc2cccnc21)c1ccccc1 (stereo unspecified) showed melting point equal to 166 to 168 °C

The compound `Cc1onc(-c2ccccc2)c1-c1csc(NC(=O)C(N)=O)n1` showed melting point equal to 204 to 205 °C

The compound `O=C1N[C@H](C(=O)NCCO[N+](=O)[O-])[C@@H](c2ccccc2)O1` showed melting point equal to 122 to 124 °C

The compound `CC(=O)c1cc(Br)no1` showed melting point equal to 65 to 66 °C

The compound `CC(=O)NC[C@H]1CN(c2ccc(N3CCC(O)(CN=[N+]=[N-])CC3)c(F)c2)C(=O)O1` showed melting point equal to 146 to 149 °C
